- Test Description: Quantitative High-Throughput drug screen in 47 multiple myeloma cell lines against the NCATS MIPE library collection: KMS27_JCRB cell viability assay (AID 1918970); note: nearly all actives have a fitted effect of over 30% in size
- Test Settings: KMS27 myeloma cells, CellTiter-Glo ATP viability, 48 h; series mostly up to 45.8 µM
Records with an inconclusive call do not appear. The source made the active and inactive calls. Calls come from the whole dose curve; as a rule, active = well fitted cell-killing curve with a large enough effect; inconclusive = small, poorly fitted or top-dose-only effect, or effect the other way; inactive = no such curve, though single readings can be large or run the other way.
Respond using exactly one of the listed classes: yes for active, no for inactive

Query: GET /call?item= CC=C(C)C(=O)O[C@H]1C(C)=C2[C@@H]3OC(=O)[C@@](C)(O)[C@@]3(O)[C@@H](OC(=O)CCC)C[C@](C)(OC(C)=O)[C@@H]2[C@@H]1OC(=O)CCCCCCC returns the recorded outcome of this test.
Response: no

Query: GET /call?item= COCC1(CO)C(=O)C2CCN1CC2 (centres undefined) returns the recorded outcome of this test.
Response: yes

Query: GET /call?item= O=[N+]([O-])c1ncc[nH]1 returns the recorded outcome of this test.
Response: no

Query: GET /call?item= O=C1CCC[C@@H]2[C@H]3CCCN4CCC[C@@H](CN12)[C@@H]34 returns the recorded outcome of this test.
Response: no

Query: GET /call?item= CC(N[C@H]1C[C@H]1c1ccccc1)c1ccc2c(c1)OCCO2 (some centres undefined) returns the recorded outcome of this test.
Response: no

Query: GET /call?item= C=C[C@@H]1CN2CCC1C[C@@H]2[C@@H](O)c1ccnc2ccccc12 (some centres undefined) returns the recorded outcome of this test.
Response: yes

Query: GET /call?item= CC1(N2CCC(n3c([C@@H]4CCCNC4)nc4ccccc43)CC2)CCCCCCC1 returns the recorded outcome of this test.
Response: yes

Query: GET /call?item= CC(=O)N(C)c1cccc(-c2ccnc3c(C(=O)c4cccs4)cnn23)c1 returns the recorded outcome of this test.
Response: yes

Query: GET /call?item= C[C@]12CC[C@H]3[C@@H](CCC4=CC(=O)CC[C@@]43C)[C@H]1CC[C@H]2O returns the recorded outcome of this test.
Response: no

Query: GET /call?item= COC(=O)[C@@H](N)CCCN=C(N)N[N+](=O)[O-] returns the recorded outcome of this test.
Response: no

Query: GET /call?item= CC(C)[C@]12O[C@@H]1[C@@H]1O[C@]13[C@]1(O[C@H]1C[C@@H]1C4=C(CC[C@@]13C)C(=O)OC4)[C@H]2O returns the recorded outcome of this test.
Response: no

Query: GET /call?item= CC[C@@]1(O)C(=O)OCc2c1cc1n(c2=O)Cc2cc3ccccc3nc2-1 returns the recorded outcome of this test.
Response: yes

Query: GET /call?item= CN(C)[C@@H]1C(=O)C(C(N)=O)=C(O)[C@@]2(O)C(=O)C3=C(O)c4c(O)cccc4[C@@](C)(O)[C@H]3[C@H](O)[C@@H]12 returns the recorded outcome of this test.
Response: no

Query: GET /call?item= CN[C@@H]1Cc2cccc3[nH]c(=O)n(c23)C1 returns the recorded outcome of this test.
Response: no
